// reported EC50 per item
biological target: GABA-A receptor; alpha-1/beta-2/gamma-2 (Homo sapiens, UniProt P14867+P18507+P47870); assay: Partial agonist activity at GABAAalpha1beta2gamma2s receptor (unknown origin) expressed in Xenopus laevis oocytes assessed as induction of chloride current by two-microelectrode voltage-clamp method; assay type: cell-based
Use µM as the unit, but write only the number.

Below, each entry is followed by its recorded EC50 result.
[[record]]
line_notation = "CCCc1cc(NC(C)=O)c(O)c(-c2ccc(OCC)c(CCC)c2)c1"
system_name = "GABA-A receptor; alpha-1/beta-2/gamma-2 (Homo sapiens, UniProt P14867+P18507+P47870)"
metric = "EC50"
value_observed = 6.9

[[record]]
line_notation = "CCCc1cc(N)c(O)c(-c2ccc(OCC)c(CCC)c2)c1"
system_name = "GABA-A receptor; alpha-1/beta-2/gamma-2 (Homo sapiens, UniProt P14867+P18507+P47870)"
metric = "EC50"
value_observed = 33.2

[[record]]
line_notation = "CCCc1ccc(OC)c(-c2cc(N)c(O)c(CCC)c2)c1"
system_name = "GABA-A receptor; alpha-1/beta-2/gamma-2 (Homo sapiens, UniProt P14867+P18507+P47870)"
metric = "EC50"
value_observed = 62.2

[[record]]
line_notation = "C=CCc1ccc(O)c(-c2ccc(O)c(CC=C)c2)c1"
system_name = "GABA-A receptor; alpha-1/beta-2/gamma-2 (Homo sapiens, UniProt P14867+P18507+P47870)"
metric = "EC50"
value_observed = 76.2

[[record]]
line_notation = "C=CCc1ccc(OC)c(-c2cc(N)c(O)c(CC=C)c2)c1"
system_name = "GABA-A receptor; alpha-1/beta-2/gamma-2 (Homo sapiens, UniProt P14867+P18507+P47870)"
metric = "EC50"
value_observed = 144


// next entry
input: Tell me its EC50 on GABA-A receptor; alpha-1/beta-2/gamma-2 (Homo sapiens, UniProt P14867+P18507+P47870): `C=CCc1cc(NC(C)=O)c(O)c(-c2ccc(OC)c(CC=C)c2)c1`
output: 68.1

====

Molecular target: GABA-A receptor; alpha-1/beta-2/gamma-2 (Homo sapiens, UniProt P14867+P18507+P47870)
Sequence (P14867 whole entry): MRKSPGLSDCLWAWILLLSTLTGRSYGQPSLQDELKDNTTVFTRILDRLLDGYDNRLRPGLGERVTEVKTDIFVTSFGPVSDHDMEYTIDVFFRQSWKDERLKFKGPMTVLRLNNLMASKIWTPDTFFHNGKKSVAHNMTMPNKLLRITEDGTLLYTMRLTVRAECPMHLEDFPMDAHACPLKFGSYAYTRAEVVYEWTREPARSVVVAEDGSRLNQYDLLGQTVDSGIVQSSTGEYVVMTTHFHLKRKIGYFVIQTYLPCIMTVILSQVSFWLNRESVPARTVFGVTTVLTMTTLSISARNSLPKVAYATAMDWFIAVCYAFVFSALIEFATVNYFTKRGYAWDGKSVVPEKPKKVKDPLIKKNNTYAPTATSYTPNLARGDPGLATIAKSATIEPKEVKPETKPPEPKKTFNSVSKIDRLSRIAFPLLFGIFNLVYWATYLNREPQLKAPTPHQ
Sequence (P47870 whole entry): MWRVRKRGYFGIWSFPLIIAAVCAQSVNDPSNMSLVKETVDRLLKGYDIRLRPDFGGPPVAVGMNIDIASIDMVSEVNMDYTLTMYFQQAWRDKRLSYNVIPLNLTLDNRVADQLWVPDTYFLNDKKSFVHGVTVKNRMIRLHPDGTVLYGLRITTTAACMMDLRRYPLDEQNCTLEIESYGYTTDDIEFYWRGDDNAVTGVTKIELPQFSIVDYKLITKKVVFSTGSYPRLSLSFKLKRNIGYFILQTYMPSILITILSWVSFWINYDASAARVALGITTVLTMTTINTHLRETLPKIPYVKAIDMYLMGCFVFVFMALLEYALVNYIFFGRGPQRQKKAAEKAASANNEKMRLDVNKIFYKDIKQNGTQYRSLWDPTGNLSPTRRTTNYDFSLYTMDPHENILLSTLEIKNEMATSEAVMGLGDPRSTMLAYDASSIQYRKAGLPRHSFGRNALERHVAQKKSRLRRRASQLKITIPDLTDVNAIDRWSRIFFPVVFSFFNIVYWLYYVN
Sequence (P18507 whole entry): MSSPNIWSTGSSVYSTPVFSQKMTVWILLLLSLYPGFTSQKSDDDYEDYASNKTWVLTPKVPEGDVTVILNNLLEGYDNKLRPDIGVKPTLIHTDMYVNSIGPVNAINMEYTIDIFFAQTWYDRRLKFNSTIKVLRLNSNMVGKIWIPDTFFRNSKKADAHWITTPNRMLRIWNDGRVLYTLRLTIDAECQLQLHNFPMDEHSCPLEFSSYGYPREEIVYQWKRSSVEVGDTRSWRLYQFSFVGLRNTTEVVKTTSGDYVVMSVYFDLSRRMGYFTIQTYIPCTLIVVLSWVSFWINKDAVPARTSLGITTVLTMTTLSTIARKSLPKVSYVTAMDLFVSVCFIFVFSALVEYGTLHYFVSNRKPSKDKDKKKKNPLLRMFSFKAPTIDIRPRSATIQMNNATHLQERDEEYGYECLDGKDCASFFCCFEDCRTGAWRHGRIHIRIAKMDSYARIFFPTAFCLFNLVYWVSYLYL
Test: Allosteric modulation of GABAAalpha1beta2gamma2s receptor (unknown origin) expressed in Xenopus laevis oocytes assessed as potentiation of GABA-induced chloride current by two-microelectrode voltage-clamp method
Type: cell-based
METRIC: pEC50
Convention used: pEC50 is expressed as -log10 of the molar concentration.

[[record]]
line_notation = "C=CCc1ccc(OCC)c(-c2cc(N)c(O)c(CC=C)c2)c1"
value_observed = 4.67

[[record]]
line_notation = "C=CCc1ccc(OC)c(-c2cc(N)c(O)c(CC=C)c2)c1"
value_observed = 4.32

[[record]]
line_notation = "CCCc1ccc(OC)c(-c2cc(N)c(O)c(CCC)c2)c1"
value_observed = 4.80

[[record]]
line_notation = "CCCc1cc(NC(C)=O)c(O)c(-c2ccc(OCC)c(CCC)c2)c1"
value_observed = 5.74

[[record]]
line_notation = "CCCc1cc(N)c(O)c(-c2ccc(OCC)c(CCC)c2)c1"
value_observed = 4.84


input: Please report the measured pEC50 for `C=CCc1cc(NC(C)=O)c(O)c(-c2ccc(OC)c(CC=C)c2)c1`
output: 5.28

input: State, in one line, measured pEC50 of `CCCc1ccc(OC)c(-c2cc(CCC)c(O)c(NC(C)=O)c2)c1`
output: 4.61

input: Give the reported pEC50 for this compound. `CCCc1ccc(OCC)c(-c2cc(N)c(O)c(CCC)c2)c1`
output: 4.69

====

compounds and their reported Emax
target: GABA-A receptor; alpha-1/beta-2/gamma-2 (Homo sapiens) (UniProt P14867+P47870+P18507); assay: Partial agonist activity at GABAAalpha1beta2gamma2s receptor (unknown origin) expressed in Xenopus laevis oocytes assessed as induction of chloride current by two-microelectrode voltage-clamp method relative to GABA; type: cell-based
Please give a number only; it is taken to be in %.

Previously resolved entries follow.
[[record]]
line_notation = "C=CCc1ccc(O)c(-c2ccc(O)c(CC=C)c2)c1"
system_name = "GABA-A receptor; alpha-1/beta-2/gamma-2 (Homo sapiens) (UniProt P14867+P47870+P18507)"
value_observed = 78

[[record]]
line_notation = "CCCc1cc(N)c(O)c(-c2ccc(OCC)c(CCC)c2)c1"
system_name = "GABA-A receptor; alpha-1/beta-2/gamma-2 (Homo sapiens) (UniProt P14867+P47870+P18507)"
value_observed = 29

[[record]]
line_notation = "CCCc1cc(NC(C)=O)c(O)c(-c2ccc(OCC)c(CCC)c2)c1"
system_name = "GABA-A receptor; alpha-1/beta-2/gamma-2 (Homo sapiens) (UniProt P14867+P47870+P18507)"
value_observed = 32

[[record]]
line_notation = "C=CCc1cc(NC(C)=O)c(O)c(-c2ccc(OC)c(CC=C)c2)c1"
system_name = "GABA-A receptor; alpha-1/beta-2/gamma-2 (Homo sapiens) (UniProt P14867+P47870+P18507)"
value_observed = 63

[[record]]
line_notation = "C=CCc1ccc(OC)c(-c2cc(N)c(O)c(CC=C)c2)c1"
system_name = "GABA-A receptor; alpha-1/beta-2/gamma-2 (Homo sapiens) (UniProt P14867+P47870+P18507)"
value_observed = 59


input: Report Emax on GABA-A receptor; alpha-1/beta-2/gamma-2 (Homo sapiens) (UniProt P14867+P47870+P18507) for this entry: `CCCc1ccc(OC)c(-c2cc(N)c(O)c(CCC)c2)c1`
output: 52
